B1: FBXO3 (parent)
chain: DEEERRRRVFDVPIRRRRCSRLF

Variants of: B1
measurement.description: protein stability index of a GFP-peptide fusion (GPS, HEK-293T) (PSI 1-6); higher = more stable;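 further: lentivirally expressed fusions sorted by FACS into six bins by GFP to DsRed ratio, PSI derived from sequencing read proportions per bin multiplied by bin number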
cond: c terminus: native
Entry class follows protein stability index: L = under 2, M = from 2 up to 3, H = 3 and over

Field: example entries. Status: answers known.
# chain, classification
data = [
    ("DEECRRRRVFDVPIRRRRCSRLF", "M"),
    ("DEEERRRRVFDVPIRRRRWSRLF", "H"),
]

Bin this entry: DEEERRRVVFDVPIRRRRCSRLF H

Bin this entry: DEEERRRRVFDVPIRRRRCSRFF H

Bin this entry: DETERRRRVFDVPIRRRRCSRLF L

Bin this entry: DEEERRRRVVDVPIRRRRCSRLF H

Bin this entry: DEEERERRVFDVPIRRRRCSRLF H
